// data source = patent US20250059174A1

Reported IC50 is given for each of the following compounds.
target: Recombinant human c-KIT kinase (Homo sapiens (Human)); assay: c-KIT kinase chemiluminescence assay (ADP-Glo); details: ATP 50 μM
Sequence (P10721 26-976): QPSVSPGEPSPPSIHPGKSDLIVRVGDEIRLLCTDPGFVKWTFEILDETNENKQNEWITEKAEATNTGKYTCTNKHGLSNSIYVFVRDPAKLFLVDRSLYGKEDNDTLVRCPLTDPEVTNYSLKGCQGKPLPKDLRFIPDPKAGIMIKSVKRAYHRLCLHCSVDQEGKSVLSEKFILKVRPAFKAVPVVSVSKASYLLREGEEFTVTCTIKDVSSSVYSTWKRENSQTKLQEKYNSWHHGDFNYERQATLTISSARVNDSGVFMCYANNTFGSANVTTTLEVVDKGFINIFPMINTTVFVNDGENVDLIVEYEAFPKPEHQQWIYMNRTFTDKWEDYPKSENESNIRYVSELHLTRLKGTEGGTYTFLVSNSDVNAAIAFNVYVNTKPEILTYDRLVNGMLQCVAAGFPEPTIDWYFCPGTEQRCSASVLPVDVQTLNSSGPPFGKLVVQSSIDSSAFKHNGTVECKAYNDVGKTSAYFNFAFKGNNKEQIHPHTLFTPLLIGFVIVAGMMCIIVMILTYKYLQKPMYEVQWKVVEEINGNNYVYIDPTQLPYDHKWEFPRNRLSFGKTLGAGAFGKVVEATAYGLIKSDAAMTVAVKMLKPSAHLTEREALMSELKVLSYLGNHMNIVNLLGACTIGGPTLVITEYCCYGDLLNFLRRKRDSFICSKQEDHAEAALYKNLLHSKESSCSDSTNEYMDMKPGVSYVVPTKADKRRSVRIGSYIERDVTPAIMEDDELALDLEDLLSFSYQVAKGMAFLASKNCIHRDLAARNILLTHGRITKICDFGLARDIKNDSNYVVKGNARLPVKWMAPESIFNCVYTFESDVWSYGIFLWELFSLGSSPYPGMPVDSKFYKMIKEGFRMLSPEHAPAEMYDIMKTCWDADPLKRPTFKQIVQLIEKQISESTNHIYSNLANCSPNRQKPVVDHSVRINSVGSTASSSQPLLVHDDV

Some entries whose results are on file:
| structureAsSmiles | recordedEndpoint | measurement |
| --- | --- | --- |
| Cc1ccc(-c2noc([C@H]3C[C@@H]3F)n2)cc1NC(=O)c1cnn(-c2cccc(N)c2)c1 | IC50 | 100 to 1000 nM |
| COC(=O)N1CCC(c2nc(-c3ccc(C)c(NC(=O)c4cnn5ccc(N6CC7(COC7)C6)cc45)c3)no2)CC1 | IC50 | < 100 nM |
| Cc1ccc(-c2noc([C@H]3C[C@@H]3F)n2)cc1NC(=O)c1cnc(-c2ccccc2)s1 | IC50 | 100 to 1000 nM |
| Cc1ncc(-c2noc([C@H]3CN(C(=O)C(C)(F)F)[C@@H]3C)n2)cc1NC(=O)c1cnn2ccc(N3CC4(C3)CC(O)(C(F)F)C4)cc12 | IC50 | 100 to 1000 nM |

Ask: Which IC50 reading was recorded for the compound COc1ccc(-c2ccn3ncc(C(=O)Nc4cc(-c5noc([C@H]6C[C@@H]6F)n5)ccc4C)c3c2)c(C)n1 ?
Result: < 100 nM

Ask: // IC50 lookup, key: Cc1ccc(-c2noc([C@H]3C[C@@H](OC(F)(F)F)C3)n2)cc1NC(=O)c1cnn2ccc(N3CC4(CCN(CC(F)(F)F)C4)C3)cc12
Result: 100 to 1000 nM

----------
target: Recombinant human c-KIT kinase (Homo sapiens (Human)); test: c-KIT kinase chemiluminescence assay (ADP-Glo); settings: ATP 50 μM
recordedEndpoint: IC50

These recorded examples may help you get a feel for the data.
| compound | IC50 |
| --- | --- |
| Cc1ccc(-c2noc([C@H]3C[C@@H]3C(F)F)n2)cc1NC(=O)c1cnn2ccc(N3CC4(COC4)C3)cc12 [Example 278] | < 100 nM |
| Cc1ccc(-c2nnc([C@H]3C[C@@H]3F)o2)cc1NC(=O)c1cnc(-c2ccc3c(c2)CC(=O)N3)o1 [Example 374] | 100 to 1000 nM |
| Cc1ncc(-c2ccc(OC(F)(F)F)cn2)cc1NC(=O)c1cnn2ccc(N3CC4(COC4)C3)cc12 [Example 332] | 100 to 1000 nM |
| Cc1ccc(-c2noc([C@H]3C[C@@H]3F)n2)cc1NC(=O)c1cnc(-c2ccc(F)c3[nH]ncc23)o1 [Example 308-44] | 100 to 1000 nM |
| Cc1ccc(-c2noc([C@H]3C[C@@H]3F)n2)cc1NC(=O)c1cnn2ccc(N3CCC34COC4)cc12 [Example 176] | < 100 nM |

Ask: I am curious: what IC50 value has been reported for Cc1ccc(-c2noc([C@H]3C[C@@H]3F)n2)cc1NC(=O)c1cnn2cc(-c3cn(C(F)(F)C(=O)O)nn3)ccc12 [Example 132-4] ?
Result: < 100 nM

Ask: Param item = Cc1ccc(-c2noc([C@H]3C[C@@H]3F)n2)cc1NC(=O)c1cnn2ccc(-c3cnc(C(C)(C)O)nc3)cc12 [Example 158] ; retrieve measured IC50.
Result: 100 to 1000 nM

----------
test system: M-07e cells; experiment: M-07e cellular assay (SCF-mediated cell proliferation); assay type: cell-based; settings: Homo sapiens, 72 hours, CellTiter Glo
recordedEndpoint: EC50

| structureAsSmiles | EC50 |
| --- | --- |
| COC12CC(c3nc(-c4ccc(C)c(NC(=O)c5cnn6ccc(N7CC8(COC8)C7)cc56)c4)no3)(C1)C2 | < 0.1 µM |
| Cc1ccc(-c2noc([C@H]3C[C@@H]3F)n2)cc1NC(=O)c1cnn2ccc(NC(=O)NC3CC3)cc12 | 0.1 to 1 µM |
| Cc1cc(F)c(-c2noc([C@H]3C[C@@H]3F)n2)cc1NC(=O)c1cnn2ccc(N3CC4(C3)CN(S(C)(=O)=O)C4)cc12 | 0.1 to 1 µM |
| Cc1nc(Nc2ncc(C(=O)Nc3cc(-c4noc([C@H]5C[C@@H]5F)n4)ccc3C)s2)cc(N2CC3(COC3)C2)n1 | < 0.1 µM |

Ask: # EC50 lookup, item Cc1ccc(-c2noc([C@H]3C[C@@H]3F)n2)cc1NC(=O)c1cnn2ccc(N3CCN(C(=O)C4CC4)[C@H](C)C3)cc12
Result: < 0.1 µM

Ask: Fill blank: measured EC50 of the molecule Cc1ccc(-c2noc([C@H]3C[C@@H]3F)n2)cc1NC(=O)c1cnn2ccc(NC(=O)OC(C)(C)C)cc12 is ____.
Result: 0.1 to 1 µM

Ask: What does the data say about its EC50? Entry: Cc1ccc(-c2noc([C@H]3C[C@@H]3F)n2)cc1NC(=O)c1cnn2ccc(N3CC4(CCC4)C3)cc12
Result: 0.1 to 1 µM

Ask: May I ask what EC50 has been recorded for Cc1ccc(-c2noc([C@H]3C[C@@H]3F)n2)cc1NC(=O)c1cnc(-c2ccc(-n3cccn3)cc2)o1 ?
Result: > 1 µM

Ask: Which EC50 reading was recorded for the molecule Cc1cc(F)c(-c2noc([C@H]3C[C@@H]3F)n2)cc1NC(=O)c1cnc(-c2ccc3[nH]ncc3c2)o1 ?
Result: 0.1 to 1 µM

Ask: Param item = COc1ccccc1-c1ncc(C(=O)Nc2cc(-c3noc([C@H]4C[C@@H]4F)n3)ccc2C)o1 ; retrieve measured EC50.
Result: > 1 µM

Ask: I'd like to know its EC50. The molecule in question is Cc1ncc(-c2ncc(OC(F)(F)F)cn2)cc1NC(=O)c1cnc(-c2ccc3c(c2)CC(=O)N3)o1
Result: 0.1 to 1 µM

Ask: I have this molecule here, Cc1ncc(-c2noc(C3CN(C(=O)OC(C)(C)C)C3)n2)cc1NC(=O)c1cnn2ccc(N3CC4(C3)CC(O)(C(F)F)C4)cc12 , and I need its recorded EC50.
Result: 0.1 to 1 µM

Ask: Could you tell me which EC50 is on file for Cc1ccc(-c2noc(C3CN(C(=O)N(C)C)C3)n2)cc1NC(=O)c1cnn2ccc(N3CC4(COC4)C3)cc12 ?
Result: > 1 µM

Ask: Recorded EC50 of Cc1ncc(-c2noc(C3CN(CC(F)F)C3)n2)cc1NC(=O)c1cnn2ccc(N3CC4(C3)CC(O)(C(F)F)C4)cc12 , please.
Result: 0.1 to 1 µM

----------
target: Recombinant human c-KIT kinase (Homo sapiens (Human)); test: c-KIT kinase chemiluminescence assay (ADP-Glo); details: ATP 50 μM
recordedEndpoint: IC50

# example entries with known answers
| structureAsSmiles | experimentalTarget | IC50 |
| --- | --- | --- |
| Cc1ccc(-c2noc(C3CC4(C3)CC(F)(F)C4)n2)cc1NC(=O)c1cnn2ccc(N3CC4(COC4)C3)cc12 | Recombinant human c-KIT kinase (Homo sapiens (Human)) | < 0.1 µM |
| Cc1ccc(-c2noc([C@H]3C[C@@H]3F)n2)cc1NC(=O)c1ccnc2ccnn12 | Recombinant human c-KIT kinase (Homo sapiens (Human)) | > 1 µM |
| Cc1ccc(-c2noc([C@H]3C[C@@H]3F)n2)cc1NC(=O)c1cnc2ccnn2c1 | Recombinant human c-KIT kinase (Homo sapiens (Human)) | > 1 µM |

Consider now this further molecule.
Ask: Please report the recorded IC50 for Cc1ccc(-c2noc([C@H]3C[C@@H]3F)n2)cc1NC(=O)c1cnn2ccc(Br)cc12 .
Result: < 0.1 µM

----------
test system: M-07e cells; test: M-07e cellular assay (SCF-mediated cell proliferation); assay type: cell-based; conditions: Homo sapiens, 72 hours, CellTiter Glo
recordedEndpoint: EC50

The cases that follow already have their EC50 on record.
| compound | experimentalTarget | EC50 |
| --- | --- | --- |
| Cc1ccc(-c2noc([C@H]3C[C@@H]3F)n2)cc1NC(=O)c1cnn2cc(Cl)ccc12 [Example 57] | M-07e cells | 100 to 1000 nM |
| COC(=O)N1CC2(CC(c3nc(-c4ccc(C)c(NC(=O)c5cnn6ccc(N7CC8(C7)CC(O)(C(F)F)C8)cc56)c4)no3)C2)C1 [Example 281-109] | M-07e cells | 100 to 1000 nM |

Ask: Reported EC50, compound O=C(Nc1cc(-c2ccc(C3CC3)cn2)ccc1Cl)c1cnn2ccc(N3CC4(C3)CC(O)(C(F)F)C4)cc12 [Example 352] : ____
Result: > 1000 nM

Ask: GET /values?readout=EC50&item= Cc1ncc(-c2ncc(C3CC3)cn2)cc1NC(=O)c1cnc(-c2ccc3c(c2)CC(=O)N3)o1 [Example 361]
Result: 100 to 1000 nM

Ask: Record request: EC50 value, item Cc1ccc(-c2noc([C@H]3C[C@@H]3F)n2)cc1NC(=O)c1cnn2ccc(-c3cn(CCO)nn3)cc12 [Example 110]
Result: < 100 nM

Ask: For the compound Cc1ccc(-c2noc([C@H]3C[C@@H]3F)n2)cc1NC(=O)c1cnn2ccc(N3CC4CC3C4(C)C)cc12 (stereo partly drawn) [Example 228] , what EC50 is on record?
Result: 100 to 1000 nM

Ask: Request the reported EC50 associated with O=C(Nc1cc(-c2noc(N3CC(O)(C(F)(F)F)C3)n2)ccc1Cl)c1cnn2ccc(N3CC4(C3)CC(O)(C(F)F)C4)cc12 [Example 281-125]
Result: < 100 nM

Ask: Suppose we examine the compound Cc1ccc(-c2noc(C3C[C@@H]3F)n2)cc1NC(=O)c1cnn2ccc(-c3cnn(C(F)F)c3)cc12 (stereo partly drawn) [Example 2a] ; what EC50 value has been reported?
Result: < 100 nM

Ask: Recorded EC50 of Cc1ccc(-c2noc([C@H]3C[C@@H]3F)n2)cc1NC(=O)c1cnn2cc(Cl)c(-c3c(C)nn(CC(C)(C)O)c3C)cc12 [Example 165] , please.
Result: 100 to 1000 nM

Ask: Please give the measured EC50 for this compound: Cc1ccc(-c2noc([C@H]3C[C@@H]3F)n2)cc1NC(=O)c1cnc(-c2ccc3c(c2)C2(CCNCC2)C(=O)N3)o1 [Example 308-9]
Result: > 1000 nM
